# STUDY_TARGET: Beta-secretase 1 (Homo sapiens)
# Sequence (P56817 whole entry): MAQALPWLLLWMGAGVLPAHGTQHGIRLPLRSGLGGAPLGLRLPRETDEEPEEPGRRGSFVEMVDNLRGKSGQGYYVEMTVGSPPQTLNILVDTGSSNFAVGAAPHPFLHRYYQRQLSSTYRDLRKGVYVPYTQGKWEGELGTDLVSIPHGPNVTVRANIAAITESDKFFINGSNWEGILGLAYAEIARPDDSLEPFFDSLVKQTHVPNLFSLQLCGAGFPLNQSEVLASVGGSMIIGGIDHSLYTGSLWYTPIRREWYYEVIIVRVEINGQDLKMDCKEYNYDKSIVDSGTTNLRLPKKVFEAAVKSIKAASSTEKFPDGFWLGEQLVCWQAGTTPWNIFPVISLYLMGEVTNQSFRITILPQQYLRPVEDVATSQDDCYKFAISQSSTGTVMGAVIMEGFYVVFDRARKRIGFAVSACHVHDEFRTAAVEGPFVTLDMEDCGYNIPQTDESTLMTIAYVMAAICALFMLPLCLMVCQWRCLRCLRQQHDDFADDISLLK
# ASSAY_PROCEDURE: Inhibition of human recombinant BACE1 at 2.5 uM by fluorimetric assay
Active and inactive are the calls of the source. The rule behind the calls is not given here.
OBSERVABLE: inhibition

Previously resolved entries follow.
{"COMPOUND": "Cl.Cl.Cl.O=C(CCc1ccc2nc(-c3ccccc3)c3c(c2c1)OCCC3)NCCCCNc1c2c(nc3cc(Cl)ccc13)CCCC2", "VALUE_OBSERVED": "inactive"}
{"COMPOUND": "Cl.Cl.Cl.Cl.O=C(NCCCCCCCNc1c2c(nc3cc(Cl)ccc13)CCCC2)c1ccc2nc(-c3ccc(Cl)cc3)c3c(c2c1)OCCC3", "VALUE_OBSERVED": "14.5%"}
{"COMPOUND": "O=C(NCCCCCCCCNc1c2c(nc3cc(Cl)ccc13)CCCC2)c1ccc2nc(-c3ccc(Cl)cc3)c3c(c2c1)OCCC3", "VALUE_OBSERVED": "18.5%"}
{"COMPOUND": "Cl.Cl.Cl.Cl.O=C(NCCCCCCNc1c2c(nc3cc(Cl)ccc13)CCCC2)c1ccc2nc(-c3ccc(Cl)cc3)c3c(c2c1)OCCC3", "VALUE_OBSERVED": "inactive"}
{"COMPOUND": "Cl.Cl.Cl.O=C(CCc1ccc2nc(-c3ccccc3)c3c(c2c1)OCCC3)NCCCCCCCCNc1c2c(nc3cc(Cl)ccc13)CCCC2", "VALUE_OBSERVED": "77.8%"}

Query: // lookup inhibition | system=Beta-secretase 1 (Homo sapiens) | key= `O=C(NCCCCCCCCCCNc1c2c(nc3cc(Cl)ccc13)CCCC2)c1ccc2nc(-c3ccc(Cl)cc3)c3c(c2c1)OCCC3`
Result: inactive

Query: // lookup inhibition | system=Beta-secretase 1 (Homo sapiens) | key= `Cl.Cl.O=C(CCc1ccc2nc(-c3ccccc3)c3c(c2c1)OCCC3)NCCCCCNc1c2c(nc3cc(Cl)ccc13)CCCC2`
Result: inactive

====

# STUDY_TARGET: UniProtKB P05067
# Sequence (P05067 whole entry): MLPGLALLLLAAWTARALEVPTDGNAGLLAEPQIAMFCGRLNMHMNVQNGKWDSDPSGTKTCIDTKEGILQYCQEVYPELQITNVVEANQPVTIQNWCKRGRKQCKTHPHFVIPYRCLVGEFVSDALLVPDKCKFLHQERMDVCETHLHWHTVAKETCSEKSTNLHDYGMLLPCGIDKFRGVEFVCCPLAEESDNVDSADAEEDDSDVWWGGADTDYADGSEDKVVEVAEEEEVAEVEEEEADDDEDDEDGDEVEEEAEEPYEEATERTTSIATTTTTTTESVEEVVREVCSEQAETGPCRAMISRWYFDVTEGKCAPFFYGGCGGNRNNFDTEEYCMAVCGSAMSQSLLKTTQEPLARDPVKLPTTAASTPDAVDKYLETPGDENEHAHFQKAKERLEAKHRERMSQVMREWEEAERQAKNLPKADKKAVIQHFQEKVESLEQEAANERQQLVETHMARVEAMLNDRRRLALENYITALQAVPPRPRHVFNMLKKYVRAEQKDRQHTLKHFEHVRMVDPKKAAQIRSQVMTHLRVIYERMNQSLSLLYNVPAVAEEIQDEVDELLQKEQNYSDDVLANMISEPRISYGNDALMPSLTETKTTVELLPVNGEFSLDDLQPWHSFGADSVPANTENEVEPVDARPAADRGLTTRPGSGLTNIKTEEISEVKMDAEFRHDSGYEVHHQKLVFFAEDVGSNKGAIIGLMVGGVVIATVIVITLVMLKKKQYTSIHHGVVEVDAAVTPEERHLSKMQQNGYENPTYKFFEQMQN
# ASSAY_PROCEDURE: Inhibition of self-induced amyloid beta (1-42) aggregation at 50 uM by thioflavin T fluorescence method
Reported inhibition by item:
Please format your answer as a value with the unit trailing.

Previously resolved entries follow.
{"COMPOUND": "CC[N+](C)(CC)CCC[n+]1c(-c2ccccc2)c2cc(N)ccc2c2ccc(N)cc21 [PROPIDIUM]", "VALUE_OBSERVED": "89.8%"}
{"COMPOUND": "Cl.Cl.Cl.Cl.O=C(NCCCCCCCNc1c2c(nc3cc(Cl)ccc13)CCCC2)c1ccc2nc(-c3ccc(Cl)cc3)c3c(c2c1)OCCC3", "VALUE_OBSERVED": "28.6%"}
{"COMPOUND": "Cl.Cl.Cl.O=C(CCc1ccc2nc(-c3ccccc3)c3c(c2c1)OCCC3)NCCCCCCCCNc1c2c(nc3cc(Cl)ccc13)CCCC2", "VALUE_OBSERVED": "47.3%"}

Please find the next compound below.
Query: Entry `Cl.Cl.O=C(CCc1ccc2nc(-c3ccccc3)c3c(c2c1)OCCC3)NCCCCCNc1c2c(nc3cc(Cl)ccc13)CCCC2` : reported inhibition = ?
Result: 12.2%

====

# ASSAY_PROCEDURE: in vitro
# CONDITION_DESCRIPTION: PAMPA
# Description: Membrane permeability dissolved in PBS/EtOH (80:20) mixture by PAMPA-BBB assay
OBSERVABLE: Papp (×10⁻⁶ cm/s)
Kindly provide the numeric value in ×10⁻⁶ cm/s only, without the unit symbol.

Previously resolved entries follow.
{"COMPOUND": "Cl.Nc1c2c(nc3cc(Cl)ccc13)CCCC2", "VALUE_OBSERVED": 19.8}
{"COMPOUND": "Cl.Cl.Cl.O=C(CCc1ccc2nc(-c3ccccc3)c3c(c2c1)OCCC3)NCCCCNc1c2c(nc3cc(Cl)ccc13)CCCC2", "VALUE_OBSERVED": 15.1}
{"COMPOUND": "Cl.Cl.Cl.O=C(CCc1ccc2nc(-c3ccccc3)c3c(c2c1)OCCC3)NCCCCCCNc1c2c(nc3cc(Cl)ccc13)CCCC2", "VALUE_OBSERVED": 13.2}

Please find the next compound below.
Query: Entry CN(C)CCCN1c2ccccc2Sc2ccc(Cl)cc21 [CHLORPROMAZINE] : reported Papp = ?
Result: 8.5
